Collected GI50 values appear next to each entry.
target: BaF3 cell lines stably transfected with kinase EGFR Del/T790M (Homo sapiens, UniProt P00533, T790M, cells depend on it, form not given); experiment: Growth inhibition of BaF3 cell line stably transfected with kinase EGFR Del/T790M (MTS); type: cell-based; conditions: 48 h, read-out: growth inhibitory activity IC50, Del/T790M
Sequence (P00533 with tags, fused parts or gaps DEL746-750/T790M, form open): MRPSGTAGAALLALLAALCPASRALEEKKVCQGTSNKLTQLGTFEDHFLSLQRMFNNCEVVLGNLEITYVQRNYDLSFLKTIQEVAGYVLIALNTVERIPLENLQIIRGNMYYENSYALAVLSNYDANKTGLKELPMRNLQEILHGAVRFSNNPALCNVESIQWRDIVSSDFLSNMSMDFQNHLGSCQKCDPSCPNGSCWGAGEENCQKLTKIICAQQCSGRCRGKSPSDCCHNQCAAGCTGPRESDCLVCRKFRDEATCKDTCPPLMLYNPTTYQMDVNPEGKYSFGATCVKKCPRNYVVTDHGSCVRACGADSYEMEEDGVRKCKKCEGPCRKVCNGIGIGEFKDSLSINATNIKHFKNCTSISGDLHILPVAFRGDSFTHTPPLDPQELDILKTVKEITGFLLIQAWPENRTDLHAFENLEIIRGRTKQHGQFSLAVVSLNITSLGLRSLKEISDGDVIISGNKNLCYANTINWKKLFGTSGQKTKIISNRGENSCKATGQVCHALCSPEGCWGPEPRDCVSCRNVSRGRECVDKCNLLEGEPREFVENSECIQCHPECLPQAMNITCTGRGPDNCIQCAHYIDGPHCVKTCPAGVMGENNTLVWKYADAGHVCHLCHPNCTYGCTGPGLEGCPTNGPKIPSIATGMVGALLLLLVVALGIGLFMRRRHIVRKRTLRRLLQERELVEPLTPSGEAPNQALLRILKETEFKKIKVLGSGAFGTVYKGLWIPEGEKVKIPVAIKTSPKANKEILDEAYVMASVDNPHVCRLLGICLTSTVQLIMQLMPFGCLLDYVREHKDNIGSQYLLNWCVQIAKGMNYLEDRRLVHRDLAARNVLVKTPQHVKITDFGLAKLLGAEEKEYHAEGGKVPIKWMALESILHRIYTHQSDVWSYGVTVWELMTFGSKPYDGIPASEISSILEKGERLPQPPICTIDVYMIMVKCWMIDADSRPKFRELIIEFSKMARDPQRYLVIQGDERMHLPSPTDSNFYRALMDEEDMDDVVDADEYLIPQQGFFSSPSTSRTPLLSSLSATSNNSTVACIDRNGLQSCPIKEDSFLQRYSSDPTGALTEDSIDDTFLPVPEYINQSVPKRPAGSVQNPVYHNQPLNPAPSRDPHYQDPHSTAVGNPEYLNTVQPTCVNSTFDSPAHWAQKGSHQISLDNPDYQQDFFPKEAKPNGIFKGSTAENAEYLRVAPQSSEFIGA

Incoming: Supply reported GI50 belonging to this molecule: C=Cc1cnc(Nc2cc(CC)c(N3CCC(N4CCN(C)CC4)CC3)cc2OC(F)(F)F)nc1Nc1ccc2nccnc2c1P(C)(C)=O [Compound I-6]
Outgoing: ≤ 50 nM

Incoming: Supply reported GI50 belonging to this molecule: C=Cc1cnc(Nc2cc(F)c(N3CCC(N4CCN(C)CC4)CC3)c(F)c2)nc1Nc1ccc2nccnc2c1NS(C)(=O)=O [II-46]
Outgoing: 50 to 500 nM

Incoming: Supply reported GI50 belonging to this molecule: C=C(C)c1cnc(Nc2cc[nH]n2)nc1Nc1ccc2nccnc2c1N(C)S(C)(=O)=O [II-69]
Outgoing: 500 to 2500 nM

Incoming: Supply reported GI50 belonging to this molecule: C=Cc1cnc(Nc2cc(Cc3ccccc3)c(N3CCC(N4CCN(C)CC4)CC3)cc2OC)nc1Nc1ccc2nccnc2c1N(C)S(C)(=O)=O [II-19]
Outgoing: 50 to 500 nM
